Quick reference for OD450 among some binders
Molecular target: Peptide 1: Biotin-…-[Tyr(PC)]-acid
Sequence (peptide, as listed by the source): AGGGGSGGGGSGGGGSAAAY
Test: scFv ELISA
Give the value, in units of OD450, as a plain number.

Entry PcOxP_DB03_E09 (scFv, V domains shown, scFv in periplasmic extract) VH: EVQLLESGGGLVQPGGSLRLSCAASGFTASDFYMEWVRQAPGKGLEWVAASRNKANDQTTEYADSVKGRFTISRDNSKNTLYLQMNSLRAEDTAVYYCARDYYGSSYWYFDSWGQGTLVTVSS VL: DIQMTQSPSSLSASVGDRVTITCTASESLYSSKHKVHYLAWYQQKPGKAPKLLIYGASNRQSGVPSRFSGSGSGTDFTLTISSLQPEDFATYYCAQFYSYPLTFGGGTKVEIK — recorded OD450 = 0.39

Next:
Entry PcOxP_DB03_D11 (scFv, V domains shown, scFv in periplasmic extract) VH: EVQLLESGGGLVQPGGSLRLSCAASGFTFSDFYMEWVRQAPGKGLEWVAASRNKANDYTTEYADSVKGRFTISRDNSKNTLYLQMNSLRAEDTAVYYCARDYYGHSYWYFDVWGQGTLVTVSS VL: DIQMTQSPSSLSASVGDRVTITCTASESLYSSKHKVHYLAWYQQKPGKAPKLLIYGASSRYIGVPSRFSGSGSGTDFTLTISSLQPEDFATYYCAQFYEYPLTFGGGTKVEIK — recorded OD450 = 0.5

The measurements presented in this section are drawn from patent US20250320312A1.
